Reference source for all entries: patent US8658131B2

# TARGET_OF_ASSAY: σ2 receptor (Rattus norvegicus)
# EXPERIMENT_SUMMARY: σ2 binding of Table 5 compounds
# Design: species or system guinea pig
# CONDITIONS: read-out: σ2 Ki (nM) ± SEM; Table 6
Where a name gives a salt, the structure may show the parent alone.
OBSERVED_PROPERTY: Ki (nM)

INSERT INTO measurements (molecule, observed_property, u, test_value) VALUES
  ('O=C(c1cccnc1F)C1CCN(C2Cc3ccccc3CC2O)CC1 (stereo not shown) [TZ-4-1-122]', 'Ki', 'nM', 3530),
  ('Cn1ccc(C(=O)C2CCN(C3Cc4ccccc4CC3O)CC2)cc1=O (stereo not shown) [TZ-4-1-150, oxalate]', 'Ki', 'nM', 2120),
  ('O=C(c1cncc(F)c1)C1CCN(C2Cc3ccccc3CC2O)CC1 (stereo not shown) [TZ-4-1-96, oxalate]', 'Ki', 'nM', 1690),
  ('Nc1cccc2c1CC(N1CCC(C(=O)c3cccnc3)CC1)C(O)C2 (stereo not shown) [OS-5-110, oxalate]', 'Ki', 'nM', 5080),
  ('CNc1ccc(C(=O)C2CCN(C3Cc4ccccc4CC3O)CC2)cc1 (stereo not shown) [TZ-3-156]', 'Ki', 'nM', 6180),
  ('Cn1c(C(=O)C2CCN(C3Cc4ccccc4CC3O)CC2)cccc1=O (stereo not shown) [TZ-4-1-148]', 'Ki', 'nM', 3340),
  ('Cn1ccc(C(=O)C2CCN(C3Cc4ccccc4CC3O)CC2)c1 (stereo not shown) [TZ-4-1-114, oxalate]', 'Ki', 'nM', 7710),
  ('Cc1ccc(C(=O)C2CCN(C3Cc4ccccc4CC3O)CC2)cn1 (stereo not shown) [OS-5-40, oxalate]', 'Ki', 'nM', 3770),
  ('O=C(c1ncccc1OCCF)C1CCN(C2Cc3ccccc3CC2O)CC1 (stereo not shown) [TZ-4-2-12, oxalate]', 'Ki', 'nM', 303),
  ('O=C(c1ccc(OCCF)cc1)C1CCN(C2Cc3ccccc3CC2O)CC1 (stereo not shown) [TZ-3-148]', 'Ki', 'nM', 1890),
  ('Cc1ccc(C(=O)C2CCN(C3Cc4c(N)cccc4CC3O)CC2)cn1 (stereo not shown) [OS-5-70, oxalate]', 'Ki', 'nM', 27500),
  ('Cn1cccc1C(=O)C1CCN(C2Cc3ccccc3CC2O)CC1 (stereo not shown) [OS-5-60, oxalate]', 'Ki', 'nM', 2550),
  ('COc1ccc(C(=O)C2CCN(C3Cc4c(N)cccc4CC3O)CC2)cn1 (stereo not shown) [OS-5-82, oxalate]', 'Ki', 'nM', 10800),
  ('COc1cccnc1C(=O)C1CCN(C2Cc3ccccc3CC2O)CC1 (stereo not shown) [TZ-4-1-92, oxalate]', 'Ki', 'nM', 1560),
  ('O=C(c1ccc(OCCF)nc1)C1CCN([C@H]2Cc3ccccc3C[C@@H]2O)CC1 [TZ-5-3]', 'Ki', 'nM', 1860),
  ('O=C(c1ccc(F)nc1)C1CCN(C2Cc3ccccc3CC2O)CC1 (stereo not shown) [TZ-4-1-154, oxalate]', 'Ki', 'nM', 1750);

----------
Measured σ1/VAChT values are reported for all entries that follow.
# TARGET_OF_ASSAY: VAChT (Tetronarce californica);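 note: VAChT binding measured with highly purified Torpedo synaptic vesicles, σ1 affinity in rat brain and σ2 affinity in guinea pig membranes, values given as equilibrium Ki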
# Construct: using highly purified Torpedo synaptic vesicles; from tissue
# Sequence (P81721 1-515): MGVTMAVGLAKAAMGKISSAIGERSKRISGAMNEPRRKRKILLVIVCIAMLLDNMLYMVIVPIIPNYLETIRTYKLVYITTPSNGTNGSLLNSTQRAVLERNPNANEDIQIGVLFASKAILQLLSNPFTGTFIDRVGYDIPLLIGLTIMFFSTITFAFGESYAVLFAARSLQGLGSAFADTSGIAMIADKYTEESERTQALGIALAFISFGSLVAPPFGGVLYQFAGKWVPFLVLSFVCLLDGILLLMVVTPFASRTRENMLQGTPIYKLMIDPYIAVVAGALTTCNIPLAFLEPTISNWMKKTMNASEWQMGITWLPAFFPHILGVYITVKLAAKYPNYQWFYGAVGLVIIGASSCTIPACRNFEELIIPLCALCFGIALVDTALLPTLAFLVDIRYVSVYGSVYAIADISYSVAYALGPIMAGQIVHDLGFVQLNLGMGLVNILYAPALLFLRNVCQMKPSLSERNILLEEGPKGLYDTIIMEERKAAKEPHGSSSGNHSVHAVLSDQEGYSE
# EXPERIMENT_SUMMARY: biochemical
# Format: binding
# CONDITIONS: selectivity index Ki (σ1)/Ki (VAChT)
Counter-ions that a name gives are not always drawn.
OBSERVED_PROPERTY: σ1/VAChT

INSERT INTO assay_data (compound, test_value) VALUES
  ('COc1cccnc1C(=O)C1CCN(C2Cc3ccccc3CC2O)CC1 (stereo not drawn) [TZ-4-1-92, oxalate]', 173.3),
  ('O=C(c1ccc(OCCF)nc1)C1CCN([C@H]2Cc3ccccc3C[C@@H]2O)CC1', 55.8),
  ('COc1ccc(C(=O)C2CCN(C3Cc4c(N)cccc4CC3O)CC2)cn1 (stereo not drawn) [OS-5-82, oxalate]', 118.4),
  ('O=C(c1ncccc1OCCF)C1CCN(C2Cc3ccccc3CC2O)CC1 (stereo not drawn) [TZ-4-2-12, oxalate]', 262.0),
  ('O=C(c1cccnc1F)C1CCN(C2Cc3ccccc3CC2O)CC1 (stereo not drawn)', 102.2),
  ('Cn1c(C(=O)C2CCN(C3Cc4ccccc4CC3O)CC2)cccc1=O (stereo not drawn)', 11.8),
  ('O=C(c1ccc(F)nc1)C1CCN(C2Cc3ccccc3CC2O)CC1 (stereo not drawn) [TZ-4-1-154, oxalate]', 26.2),
  ('Cn1cccc1C(=O)C1CCN(C2Cc3ccccc3CC2O)CC1 (stereo not drawn) [OS-5-60, oxalate]', 70.7),
  ('CNc1ccc(C(=O)C2CCN(C3Cc4ccccc4CC3O)CC2)cc1 (stereo not drawn)', 100.5),
  ('Nc1cccc2c1CC(N1CCC(C(=O)c3cccnc3)CC1)C(O)C2 (stereo not drawn) [OS-5-110, oxalate]', 172.4),
  ('O=C(c1cncc(F)c1)C1CCN(C2Cc3ccccc3CC2O)CC1 (stereo not drawn) [TZ-4-1-96, oxalate]', 70.2),
  ('Cn1ccc(C(=O)C2CCN(C3Cc4ccccc4CC3O)CC2)cc1=O (stereo not drawn) [TZ-4-1-150, oxalate]', 50.5);
